- study target: UniProt Q8VF44
- Sequence (Q8VF44 as listed by the source): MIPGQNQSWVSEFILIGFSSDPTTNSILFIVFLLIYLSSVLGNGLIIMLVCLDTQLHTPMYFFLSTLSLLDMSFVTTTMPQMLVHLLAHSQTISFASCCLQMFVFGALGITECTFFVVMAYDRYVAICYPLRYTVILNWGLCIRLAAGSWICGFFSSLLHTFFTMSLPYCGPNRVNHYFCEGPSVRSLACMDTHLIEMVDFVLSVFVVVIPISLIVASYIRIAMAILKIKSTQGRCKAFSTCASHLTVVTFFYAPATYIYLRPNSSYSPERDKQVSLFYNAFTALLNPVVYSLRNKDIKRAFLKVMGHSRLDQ
- test context: stereoisomer not certain
Parameter call: string, one of t = active, f = inactive

>  <compound>
CC(C)=CCCC(C)=CCO

>  <label>
f

$$$$
>  <compound>
CCCCCCCCC(=O)O

>  <label>
f

$$$$
>  <compound>
COc1cc(C(=O)O)ccc1O

>  <label>
f

$$$$
>  <compound>
CCCCOC(=O)C(C)OC(=O)CCC (stereo not given)

>  <label>
f

$$$$
>  <compound>
CCCCCCCCCO

>  <label>
f

$$$$
>  <compound>
CC(=O)Oc1ccccc1

>  <label>
f

$$$$
>  <compound>
CCCCCCCO

>  <label>
f

$$$$
>  <compound>
CCC(=O)C(=O)CC

>  <label>
f

$$$$

Dear all, I need the recorded test outcome for CCCCCCCC(C)=O , thank you.
f

Dear all, I need the recorded test outcome for C=C(C)C1CCC(C)C(=O)C1 (stereo not given) , thank you.
f

Dear all, I need the recorded test outcome for c1ccccc1 , thank you.
f

Dear all, I need the recorded test outcome for O=C1Cc2ccccc2O1 , thank you.
t

----------
- study target: OR10A5 (Homo sapiens)
- test context: stereoisomer not certain
observed property: odorant receptor agonist call

Completed entries (count: 8):
>  <molecule>
CCCC(S)CCOC(C)=O (stereo unspecified)

>  <odorant receptor agonist call>
inactive

$$$$
>  <molecule>
CCCCC(S)C(C)CO (stereo unspecified)

>  <odorant receptor agonist call>
inactive

$$$$
>  <molecule>
CCCCCC(S)C(C)CO (stereo unspecified)

>  <odorant receptor agonist call>
inactive

$$$$
>  <molecule>
CC1=NC(C)C(C)S1 (stereo unspecified)

>  <odorant receptor agonist call>
inactive

$$$$
>  <molecule>
CC1=C(O)C(=O)C(C)O1 (stereo unspecified)

>  <odorant receptor agonist call>
inactive

$$$$
>  <molecule>
CCC(S)C(C)CO (stereo unspecified)

>  <odorant receptor agonist call>
inactive

$$$$
>  <molecule>
CC1=C(O)C(=O)OC1C (stereo unspecified)

>  <odorant receptor agonist call>
inactive

$$$$
>  <molecule>
CC1CCCCCCCCCCCCC(=O)C1 (stereo unspecified)

>  <odorant receptor agonist call>
inactive

$$$$

Reported odorant receptor agonist call ( CCCCCC(=O)C(C)C(C)=O (stereo unspecified) ) = inactive

Reported odorant receptor agonist call ( CCC1OC(C)=C(O)C1=O (stereo unspecified) ) = inactive

Reported odorant receptor agonist call ( CCC1OC(=O)C(O)=C1C (stereo unspecified) ) = inactive

----------
- study target: OR2H1 (Homo sapiens) (UniProt Q9GZK4)
- Sequence (Q9GZK4 whole entry): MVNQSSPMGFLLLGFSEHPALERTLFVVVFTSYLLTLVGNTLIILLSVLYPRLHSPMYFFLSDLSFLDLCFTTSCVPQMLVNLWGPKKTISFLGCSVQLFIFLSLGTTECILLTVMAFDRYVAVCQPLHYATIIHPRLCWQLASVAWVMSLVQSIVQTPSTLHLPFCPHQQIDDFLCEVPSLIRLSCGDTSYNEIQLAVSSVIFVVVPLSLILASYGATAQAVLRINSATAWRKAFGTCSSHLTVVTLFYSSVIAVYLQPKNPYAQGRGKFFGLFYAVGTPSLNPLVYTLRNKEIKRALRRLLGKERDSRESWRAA
- test context: stereoisomer not certain
observed property: odorant receptor agonist call

Completed entries (count: 7):
>  <compound>
CC(=O)c1c(C)c([N+](=O)[O-])c(C(C)(C)C)c([N+](=O)[O-])c1C

>  <odorant receptor agonist call>
inactive

$$$$
>  <compound>
CCC(S)C(C)CO (stereo not drawn)

>  <odorant receptor agonist call>
inactive

$$$$
>  <compound>
CCCCCC(=O)C(C)C(C)=O (stereo not drawn)

>  <odorant receptor agonist call>
inactive

$$$$
>  <compound>
CCCCCC(S)C(C)CO (stereo not drawn)

>  <odorant receptor agonist call>
inactive

$$$$
>  <compound>
CC(CO)CS (stereo not drawn)

>  <odorant receptor agonist call>
inactive

$$$$
>  <compound>
CC1=C(O)C(=O)C(C)O1 (stereo not drawn)

>  <odorant receptor agonist call>
inactive

$$$$
>  <compound>
CCC1OC(C)=C(O)C1=O (stereo not drawn)

>  <odorant receptor agonist call>
inactive

$$$$

Please find the next compound below.
Readout odorant receptor agonist call for CC1CCCCCCCCCCCCC(=O)C1 (stereo not drawn) , test system OR2H1 (Homo sapiens) (UniProt Q9GZK4), was inactive
